# System: E. coli
# assay.name: in vitro cytotoxicity screen of drugs co-incubated with E. coli (tumour cell survival, MTS)
# Type: cell-based, E. coli Nissle 1917
# condition.label: drug co-incubated with E. coli, bacteria removed, filtrate applied to tumour cells; change relative to reference cytotoxic effect (drug without bacteria)
experimental.readout: Cytotoxicity E. coli

compound="Nc1nc(F)nc2c1ncn2[C@@H]1O[C@H](COP(=O)(O)O)[C@@H](O)[C@@H]1O [Fludarabine de phosphate]" target_system="E. coli" readout_value=Up
compound="Nc1nc(=O)[nH]cc1F [5-fluorocytosine]" target_system="E. coli" readout_value=Up
compound="NC(=O)c1cc(N2CC2)c([N+](=O)[O-])cc1[N+](=O)[O-] [CB1954]" target_system="E. coli" readout_value=Up
compound="C[N+](C)([O-])CCNc1ccc(NCC[N+](C)(C)[O-])c2c1C(=O)c1c(O)ccc(O)c1C2=O [AQ4N]" target_system="E. coli" readout_value=Up
compound="COc1cccc2c1C(=O)c1c(O)c3c(c(O)c1C2=O)C[C@@](O)(C(C)=O)C[C@@H]3O[C@H]1C[C@H](N)[C@H](O)[C@H](C)O1 [Daunorubicin]" target_system="E. coli" readout_value=Down
compound="O=c1[nH]c(=O)n(C2CCCO2)cc1F (stereo not drawn) [Tegafur]" target_system="E. coli" readout_value=Up
compound="COc1cc([C@@H]2c3cc4c(cc3[C@@H](O[C@@H]3O[C@@H]5CO[C@@H](C)O[C@H]5[C@H](O)[C@H]3O)[C@H]3COC(=O)[C@H]23)OCO4)cc(OC)c1OP(=O)(O)O [Etoposide phosphate]" target_system="E. coli" readout_value=Down
compound="CC1(C)CCC2=C(O1)c1ccccc1C(=O)C2=O [B-Lapachone]" target_system="E. coli" readout_value=Down
compound="Nc1ccn([C@@H]2O[C@H](CO)[C@@H](O)C2(F)F)c(=O)n1 [Gemcitabine]" target_system="E. coli" readout_value=Down
compound="O=C1c2c(O)ccc(O)c2C(=O)c2c(NCCNCCO)ccc(NCCNCCO)c21 [Mitoxantrone]" target_system="E. coli" readout_value=Down
compound="CC(=O)[C@]1(O)Cc2c(O)c3c(c(O)c2[C@@H](O[C@H]2C[C@H](N)[C@H](O)[C@H](C)O2)C1)C(=O)c1ccccc1C3=O [Idarubicin]" target_system="E. coli" readout_value=Down
compound="OC[C@H]1O[C@@H](n2cnc3c(S)ncnc32)C[C@@H]1O [6-Mercaptopurine-2′-deoxyriboside]" target_system="E. coli" readout_value=Up
compound="CC1=CC(=O)c2ccccc2C1=O [Menadione]" target_system="E. coli" readout_value=Down
compound="Nc1ncnc2c1ncn2[C@@H]1O[C@H](CO)[C@@H](O)[C@@H]1O [Vidarabine]" target_system="E. coli" readout_value=Down
compound="COc1cccc2c1C(=O)c1c(O)c3c(c(O)c1C2=O)C[C@@](O)(C(=O)CO)C[C@@H]3O[C@H]1C[C@H](N)[C@H](O)[C@H](C)O1 [Doxorubicin]" target_system="E. coli" readout_value=Down
